System: HEK-293T
experiment_summary: Multiplex assay against HEK293T
Type: toxicity, cell-based
condition_label: human, 48 h, 10 µM, compound concentration 10 uM, replicate 2
Exercise: state measured Total Cell Count for each of the compounds provided.
Would you mind answering with just the numeric figure?

State the recorded Total Cell Count for this entry: `Cn1cc(-c2[nH]c3cc(NC(=O)[C@H](N)C4CCCCC4)cc4c3c2C=NNC4=O)cn1`
179

State the recorded Total Cell Count for this entry: `CC(C)(O)CNc1ncc(-c2ccnc(Nc3ccnc(Cl)c3)n2)c(CC2CC2)n1`
212

State the recorded Total Cell Count for this entry: `C[C@@]1(C(=O)Nc2ccc(F)nc2)CCCN1c1nc(Nc2cc(C3CC3)n[nH]2)c2cccn2n1`
199

State the recorded Total Cell Count for this entry: COc1cccc([C@@H](C)NCCCc2ccccc2Cl)c1.Cl [TECALCET HYDROCHLORIDE]
265

State the recorded Total Cell Count for this entry: O=C1NCN(c2ccccc2)C12CCN(CCCOc1ccc(F)cc1)CC2 [SPIRAMIDE]
383

State the recorded Total Cell Count for this entry: `CC[C@H](C)C(=O)O[C@H]1C[C@@H](C)C=C2C=C[C@H](C)[C@H](CC[C@@H]3C[C@@H](O)CC(=O)O3)[C@H]21`
484

State the recorded Total Cell Count for this entry: `CN(C)C(=O)/C(C#N)=C/c1ccc(-c2nc3cnc4[nH]ccc4c3n2C2CCCCC2)o1`
338

State the recorded Total Cell Count for this entry: `Cc1cc(C)cc(-c2cnc3cc(Cl)c(-c4cccc(O)c4)cc3c2OCCCN)c1`
179

State the recorded Total Cell Count for this entry: `CCn1c(=O)c(-c2ccc(Cl)cc2Cl)cc2cnc(Nc3ccc(N4CCNCC4)c(F)c3)nc21`
296

State the recorded Total Cell Count for this entry: `CN1CCN(CCOc2cc(OC3CCOCC3)c3c(Nc4c(Cl)ccc5c4OCO5)ncnc3c2)CC1`
204

State the recorded Total Cell Count for this entry: `Cc1[nH]c(/C=C2\C(=O)Nc3ccc(S(=O)(=O)N(C)c4cccc(Cl)c4)cc32)c(C)c1C(=O)N1CCN(C)CC1`
178

State the recorded Total Cell Count for this entry: `C=CC(=O)Nc1cccc(C(=O)Nc2ccc(Nc3cc(-c4[nH]c(SC)nc4C)ccn3)cc2)c1`
503

State the recorded Total Cell Count for this entry: C[C@@H](NCCCc1cccc(C(F)(F)F)c1)c1cccc2ccccc12.Cl [CINACALCET HYDROCHLORIDE]
203

State the recorded Total Cell Count for this entry: `c1cn2cc(-c3ccc4cn[nH]c4c3)nc(Nc3ccc(N4CCOCC4)cc3)c2n1`
444

State the recorded Total Cell Count for this entry: `Cc1nc(-c2ccc(-c3ccc(C(=O)N4CCc5cc6c(cc54)C4(CCN(C)CC4)CO6)cc3)c(C)c2)no1`
139

---

Test system: Fibroblast
experiment_summary: Multiplex assay against human fibroblast
Assay type: toxicity, cell-based
condition_label: 12 h, 1 µM, compound concentration 1 uM, replicate 1
Exercise: state measured Population Tubulin-Different-Phenotype (%) for each of the compounds provided.

State the recorded Population Tubulin-Different-Phenotype (%) for this entry: CN1CCCC(n2nc(Cc3ccc(Cl)cc3)c3ccccc3c2=O)CC1.Cl (configuration not stated) [AZELASTINE HYDROCHLORIDE]
65%

State the recorded Population Tubulin-Different-Phenotype (%) for this entry: `NC(=O)Nc1cc(-c2cccc(F)c2)sc1C(=O)N[C@H]1CCCNC1`
1%

State the recorded Population Tubulin-Different-Phenotype (%) for this entry: `CN(C)CC#Cc1ccc(OCCCc2sc(N3CCc4cccc(C(=O)Nc5nc6ccccc6s5)c4C3)nc2C(=O)O)c(F)c1`
46%

State the recorded Population Tubulin-Different-Phenotype (%) for this entry: `CC(C)(O)CNc1ncc(-c2ccnc(Nc3ccnc(Cl)c3)n2)c(CC2CC2)n1`
54%

State the recorded Population Tubulin-Different-Phenotype (%) for this entry: `COc1ncc(-c2ccc3nccc(-c4ccnnc4)c3c2)cc1NS(=O)(=O)c1ccc(F)cc1F`
51%

State the recorded Population Tubulin-Different-Phenotype (%) for this entry: `C=CC(=O)Nc1cccc(C(=O)Nc2ccc(Nc3cc(-c4[nH]c(SC)nc4C)ccn3)cc2)c1`
36%

State the recorded Population Tubulin-Different-Phenotype (%) for this entry: `CN1CCN(c2ccc(OC(F)(F)F)c(Nc3ncc4c(n3)-c3c(c(C(N)=O)nn3CCO)CC4)c2)CC1`
41%

State the recorded Population Tubulin-Different-Phenotype (%) for this entry: `Cc1cc(C)cc(-c2cnc3cc(Cl)c(-c4cccc(O)c4)cc3c2OCCCN)c1`
61%

State the recorded Population Tubulin-Different-Phenotype (%) for this entry: `COc1cc(-n2cnc3cc(-c4ccc(Cl)cc4)sc3c2=O)ccc1OCCN1CCCC1`
38%

State the recorded Population Tubulin-Different-Phenotype (%) for this entry: `COc1cc2nccc(Oc3ccc(NC(=O)Nc4cc(C)on4)c(Cl)c3)c2cc1OC.O`
13%

State the recorded Population Tubulin-Different-Phenotype (%) for this entry: `CN(C)C(=O)/C(C#N)=C/c1ccc(-c2nc3cnc4[nH]ccc4c3n2C2CCCCC2)o1`
36%

State the recorded Population Tubulin-Different-Phenotype (%) for this entry: `CC[C@H](C)C(=O)O[C@H]1C[C@@H](C)C=C2C=C[C@H](C)[C@H](CC[C@@H]3C[C@@H](O)CC(=O)O3)[C@H]21`
42%

State the recorded Population Tubulin-Different-Phenotype (%) for this entry: `Cc1nc(-c2cn3c(n2)-c2ccc(-c4cnn(C(C)(C)C(N)=O)c4)cc2OCC3)n(C(C)C)n1`
16%

State the recorded Population Tubulin-Different-Phenotype (%) for this entry: O=C1NCN(c2ccccc2)C12CCN(CCCOc1ccc(F)cc1)CC2 [SPIRAMIDE]
33%

State the recorded Population Tubulin-Different-Phenotype (%) for this entry: `C[C@@]1(C(=O)Nc2ccc(F)nc2)CCCN1c1nc(Nc2cc(C3CC3)n[nH]2)c2cccn2n1`
69%

State the recorded Population Tubulin-Different-Phenotype (%) for this entry: `Cc1[nH]c(/C=C2\C(=O)Nc3ccc(S(=O)(=O)N(C)c4cccc(Cl)c4)cc32)c(C)c1C(=O)N1CCN(C)CC1`
43%

State the recorded Population Tubulin-Different-Phenotype (%) for this entry: `c1cn2cc(-c3ccc4cn[nH]c4c3)nc(Nc3ccc(N4CCOCC4)cc3)c2n1`
52%

---

Tested on: U2OS
experiment_summary: Multiplex assay against U2OS
Type: toxicity, cell-based
condition_label: human, 24 h, 10 µM, compound concentration 10 uM, replicate 2
Rule: Population Fragmented Nuclei (%) below 20% gives 1. Equal to or above 20% gives -1.

Given `CN1CCN(CCOc2cc(OC3CCOCC3)c3c(Nc4c(Cl)ccc5c4OCO5)ncnc3c2)CC1` , is recorded Population Fragmented Nuclei (%) strictly lower than 20%?
1

Given Cl.N#Cc1ccc2[nH]cc(CCCCN3CCN(c4ccc5oc(C(N)=O)cc5c4)CC3)c2c1 [VILAZODONE HYDROCHLORIDE] , is recorded Population Fragmented Nuclei (%) strictly lower than 20%?
-1

Given `Cn1cc(-c2[nH]c3cc(NC(=O)[C@H](N)C4CCCCC4)cc4c3c2C=NNC4=O)cn1` , is recorded Population Fragmented Nuclei (%) strictly lower than 20%?
-1

Given `CC[C@H](C)C(=O)O[C@H]1C[C@@H](C)C=C2C=C[C@H](C)[C@H](CC[C@@H]3C[C@@H](O)CC(=O)O3)[C@H]21` , is recorded Population Fragmented Nuclei (%) strictly lower than 20%?
1

Given COc1cccc([C@@H](C)NCCCc2ccccc2Cl)c1.Cl [TECALCET HYDROCHLORIDE] , is recorded Population Fragmented Nuclei (%) strictly lower than 20%?
1

Given `Cc1nc(-c2ccc(-c3ccc(C(=O)N4CCc5cc6c(cc54)C4(CCN(C)CC4)CO6)cc3)c(C)c2)no1` , is recorded Population Fragmented Nuclei (%) strictly lower than 20%?
1

Given C[C@@H](NCCCc1cccc(C(F)(F)F)c1)c1cccc2ccccc12.Cl [CINACALCET HYDROCHLORIDE] , is recorded Population Fragmented Nuclei (%) strictly lower than 20%?
1

Given `CC(C)(O)CNc1ncc(-c2ccnc(Nc3ccnc(Cl)c3)n2)c(CC2CC2)n1` , is recorded Population Fragmented Nuclei (%) strictly lower than 20%?
1

---

Tested on: Fibroblast
experiment_summary: Multiplex assay against human fibroblast
Assay type: toxicity, cell-based
condition_label: 48 h, 10 µM, compound concentration 10 uM, replicate 1
Rule: Population Mitotic Cells (%) below 30% gives Met. Equal to or above 30% gives Not met.

Given `CN(C)C(=O)/C(C#N)=C/c1ccc(-c2nc3cnc4[nH]ccc4c3n2C2CCCCC2)o1` , is recorded Population Mitotic Cells (%) strictly lower than 30%?
Not met

Given `CN(C)CC#Cc1ccc(OCCCc2sc(N3CCc4cccc(C(=O)Nc5nc6ccccc6s5)c4C3)nc2C(=O)O)c(F)c1` , is recorded Population Mitotic Cells (%) strictly lower than 30%?
Not met

Given `CC(C)(O)CNc1ncc(-c2ccnc(Nc3ccnc(Cl)c3)n2)c(CC2CC2)n1` , is recorded Population Mitotic Cells (%) strictly lower than 30%?
Not met

Given `CCn1c(=O)c(-c2ccc(Cl)cc2Cl)cc2cnc(Nc3ccc(N4CCNCC4)c(F)c3)nc21` , is recorded Population Mitotic Cells (%) strictly lower than 30%?
Not met

Given `C=CC(=O)Nc1cccc(C(=O)Nc2ccc(Nc3cc(-c4[nH]c(SC)nc4C)ccn3)cc2)c1` , is recorded Population Mitotic Cells (%) strictly lower than 30%?
Not met

Given `Cc1[nH]c(/C=C2\C(=O)Nc3ccc(S(=O)(=O)N(C)c4cccc(Cl)c4)cc32)c(C)c1C(=O)N1CCN(C)CC1` , is recorded Population Mitotic Cells (%) strictly lower than 30%?
Not met

Given `Cc1c(-c2ccc(O)cc2)n(Cc2ccc(OCCN3CCCCCC3)cc2)c2ccc(O)cc12` , is recorded Population Mitotic Cells (%) strictly lower than 30%?
Met

Given COc1cccc([C@@H](C)NCCCc2ccccc2Cl)c1.Cl [TECALCET HYDROCHLORIDE] , is recorded Population Mitotic Cells (%) strictly lower than 30%?
Met

Cited source for all entries: ChEMBL document CHEMBL4689842
